Where these numbers come from: patent US20120316071A1

# system.tested: T1, Recombinant Human DLL4 (human, UniProt Q9NR61 27-524)
# T1 construct: Bought from R&D Systems; also called delta-like protein 4; rHuman DLL4
# assay.procedure: ECL Multispot (MSD) assay; antigen spotted on plate, Fab in solution;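 also: fab bound 1 h at 20 °C, detected by TAG-labelled antibody electrochemiluminescence, signal relative to each well's blank, ratio of 4 or more marks a hit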

binder	ECL signal
Fab VH1-46_IGHD6-6*01_IGHJ1*01 S102A/S103P/S104F/H111F (APFF) & L6_IGKJ1*01 S28L (Fab, V domains shown, Fab made in E. coli; the variable domains were cloned into Plasmid A (CH1, His and Flag tags) and Plasmid C (kappa CL); also called APFF / S28L) VH: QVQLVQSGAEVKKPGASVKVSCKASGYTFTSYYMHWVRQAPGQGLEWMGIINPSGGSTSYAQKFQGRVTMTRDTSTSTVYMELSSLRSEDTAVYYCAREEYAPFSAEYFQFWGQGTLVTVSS VL: EIVLTQSPATLSLSPGERATLSCRASQLVSSYLAWYQQKPGQAPRLLIYDASNRATGIPARFSGSGSGTDFTLTISSLEPEDFAVYYCQQRSNWPPWTFGQGTKVEIKR	72300
Fab VH1-46_IGHD6-6*01_IGHJ1*01 S102A/S103P/S104F/H111F (APFF) & L6_IGKJ1*01 S28T (Fab, V domains shown, Fab made in E. coli; the variable domains were cloned into Plasmid A (CH1, His and Flag tags) and Plasmid C (kappa CL); also called APFF / S28T) VH: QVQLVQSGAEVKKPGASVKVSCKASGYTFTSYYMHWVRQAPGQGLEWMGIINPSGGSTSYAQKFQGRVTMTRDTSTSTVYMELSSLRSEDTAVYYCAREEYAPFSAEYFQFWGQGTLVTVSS VL: EIVLTQSPATLSLSPGERATLSCRASQTVSSYLAWYQQKPGQAPRLLIYDASNRATGIPARFSGSGSGTDFTLTISSLEPEDFAVYYCQQRSNWPPWTFGQGTKVEIKR	159000
